- SYSTEM_NAME: P2RY13 (Homo sapiens, UniProt Q9BPV8)
- Construct: purchased Promega (in-house HiBiT-GPCR construct library, NanoBRET)
- Sequence (Q9BPV8 1-354): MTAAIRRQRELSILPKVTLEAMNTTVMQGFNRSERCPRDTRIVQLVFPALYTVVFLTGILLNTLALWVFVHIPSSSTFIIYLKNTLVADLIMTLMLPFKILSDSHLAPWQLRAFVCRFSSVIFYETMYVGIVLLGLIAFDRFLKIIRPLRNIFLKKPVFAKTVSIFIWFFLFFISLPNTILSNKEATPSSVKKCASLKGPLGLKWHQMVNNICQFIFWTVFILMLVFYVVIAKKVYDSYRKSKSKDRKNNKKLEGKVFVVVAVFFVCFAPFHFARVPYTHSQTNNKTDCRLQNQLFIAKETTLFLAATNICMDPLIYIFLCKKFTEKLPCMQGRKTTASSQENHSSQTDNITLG
- PROTOCOL: NanoBRET screen HiBiT-P2RY13 in HEK293
- Format: binding
- PROTOCOL_CONDITIONS: P2RY13; tracer 1μM
ENDPOINT_NAME: NanoBRET Fold Response
Just the number, please.

Below are worked cases with known answers.
Cc1cc2c(s1)Nc1ccccc1N=C2N1CCN(CCCNC(=O)CCOCCOCCOCCOCCNC(=O)CCc2ccc3n2[B-](F)(F)[N+]2=C(c4ccc[nH]4)C=CC2=C3)CC1 :: 0.86
COc1ccccc1N1CCN(CCCCN2C(=O)c3ccc(CNC(=O)CCOCCOCCOCCOCCNC(=O)CCc4ccc5n4[B-](F)(F)[N+]4=C(c6ccc[nH]6)C=CC4=C5)cc3C2=O)CC1 :: 1.04
O=C(CCc1ccc2n1[B-](F)(F)[N+]1=C(c3ccc[nH]3)C=CC1=C2)NCc1ccc(C(=O)NCCOCCC(=O)N[C@@H]2CC[C@@]3(O)[C@H]4Cc5ccc(O)c6c5[C@@]3(CCN4CC3CC3)[C@H]2O6)cc1 [Naltrexone-3-NB590] :: 0.92
O=C(CCc1ccc2n1[B-](F)(F)[N+]1=C(c3ccc[nH]3)C=CC1=C2)NCCOCCOCCNC(=O)OCCOCCN1CCN(C2=Nc3ccccc3Sc3ccccc32)CC1 :: 0.95

Indicate the recorded NanoBRET Fold Response value for this compound: N#CN=C(NCCCOc1cccc(CN2CCCCC2)c1)NCCNC(=O)CCOCCOCCOCCOCCNC(=O)CCc1ccc2n1[B-](F)(F)[N+]1=C(c3ccc[nH]3)C=CC1=C2
1.02

----------
- SYSTEM_NAME: NPBWR2 (Homo sapiens)
- Construct: purchased Promega (in-house HiBiT-GPCR construct library, NanoBRET)
- Sequence (P48146 whole entry): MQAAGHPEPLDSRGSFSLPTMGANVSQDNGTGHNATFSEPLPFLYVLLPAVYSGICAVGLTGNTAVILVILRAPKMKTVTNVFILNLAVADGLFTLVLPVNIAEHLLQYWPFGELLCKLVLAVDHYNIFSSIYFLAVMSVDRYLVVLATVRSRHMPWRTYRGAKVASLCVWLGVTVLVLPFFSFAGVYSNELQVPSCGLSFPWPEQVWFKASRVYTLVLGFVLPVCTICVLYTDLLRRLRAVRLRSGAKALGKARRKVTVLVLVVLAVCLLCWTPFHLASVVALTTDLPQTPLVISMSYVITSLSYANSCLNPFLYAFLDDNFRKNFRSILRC
- PROTOCOL: NanoBRET screen HiBiT-NPBWR2 in HEK293
- Assay type: binding
- PROTOCOL_CONDITIONS: NPBWR2; tracer 1μM
# NanoBRET Fold Response binned as label 0: < 0.9; label 1: ≥ 0.9 and < 1; label 2: ≥ 1

These recorded examples may help you get a feel for the data.
O=C(CCc1ccc2n1[B-](F)(F)[N+]1=C(c3ccc[nH]3)C=CC1=C2)NCc1ccc(C(=O)NCCOCCC(=O)N[C@@H]2CC[C@@]3(O)[C@H]4Cc5ccc(O)c6c5[C@@]3(CCN4CC3CC3)[C@H]2O6)cc1 [Naltrexone-3-NB590] :: label 2
O=C(CCOCCOCCOCCOCCNC(=O)CCc1ccc2n1[B-](F)(F)[N+]1=C(c3ccc[nH]3)C=CC1=C2)NCCCN1CCN(C2=Nc3ccccc3Oc3ccc(Cl)cc32)CC1 [Loxapine-a-2-NB590] :: label 1
CC(C)N(CC[C@H](c1ccccc1)c1cc(CCNC(=O)c2ccc(CNC(=O)CCc3ccc4n3[B-](F)(F)[N+]3=C(c5ccc[nH]5)C=CC3=C4)cc2)ccc1O)C(C)C [Tolterodine-BZ-NB590] :: label 2
COc1ccccc1N1CCN(CCCCN2C(=O)c3ccc(CNC(=O)CCOCCNC(=O)c4ccc(CNC(=O)CCc5ccc6n5[B-](F)(F)[N+]5=C(c7ccc[nH]7)C=CC5=C6)cc4)cc3C2=O)CC1 [NAN-190-3-NB590] :: label 0
O=C(CCc1ccc2n1[B-](F)(F)[N+]1=C(c3ccc[nH]3)C=CC1=C2)NCCOCCOCCNC(=O)OCCOCCN1CCN(C2=Nc3ccccc3Sc3ccccc32)CC1 [Quetiapine-a-2-NB590] :: label 2

Class? Entry: CC(C)N(CC[C@H](c1ccccc1)c1cc(CCNC(=O)CCOCCOCCOCCOCCNC(=O)CCc2ccc3n2[B-](F)(F)[N+]2=C(c4ccc[nH]4)C=CC2=C3)ccc1O)C(C)C [Tolterodine-2-NB590]
label 0
